B1: 2K2A (parent)
chain: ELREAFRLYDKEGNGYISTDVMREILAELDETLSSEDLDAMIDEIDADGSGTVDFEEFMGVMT

Variants of: B1
Assay: folding stability dG (cDNA display proteolysis); higher = more stable
Conditions: PBS, room temperature
Answer each item with its documented folding stability dG.
Please format your answer as a value with the unit trailing.

"ELREAFRLYDKEGNGYISTDVMHEILAELDETLSSEDLDAMIDEIDADGSGTVDFEEFMGVMT" yielded folding stability dG of -0.034 kcal/mol

variant "ELREAFRLYDKEGNGYISTDVMREILAELDETLSSEDLDAMIDQIDADGSGTVDFEEFMGVMT" , folding stability dG observed: 2.06 kcal/mol

// folding stability dG value for "ELREAFRLYDKEGDGYISTDVMREILAELDETLSSEDLDAMIDEIDADGSGTVDFEEFMGVMT" : 1.3 kcal/mol

Consider "ELREAFRLYDKEGNGYISTDVMREILAELDETLSSEDLLAMIDEIDADGSGTVDFEEFMGVMT" . Its measured folding stability dG is 1.3 kcal/mol

GET /value?item= "ELREAFRLYDKEGNCYISTDVMREILAELDETLSSEDLDAMIDEIDADGSGTVDFEEFMGVMT" &field=folding stability dG returns 1.1 kcal/mol

Looking up "ELREAFRLYDKEGNGYISTDVMREILAELDETLESEDLDAMIDEIDADGSGTVDFEEFMGVMT" , I see its folding stability dG listed as 1.05 kcal/mol

folding stability dG reading for "ELREAFRLYDKEGNGYISTDVMREILAELIETLSSEDLDAMIDEIDADGSGTVDFEEFMGVMT" : 1.81 kcal/mol

The measured folding stability dG associated with "ELREAFRLYDKEGNGYISTDVMREILAELDETLSSEDLDAMIDEIDADGSGTKDFEEFMGVMT" reads -0.419 kcal/mol

// folding stability dG lookup, variant = "ELREAFRLYDKELNGYISTDVMREILAELDETLSSEDLDAMIDEIDADGSGTVDFEEFMGVMT" , result: 1.11 kcal/mol

So for "ELREAFRLYDKEGNGYISTDVMREILAELDETSSSEDLDAMIDEIDADGSGTVDFEEFMGVMT" , the logged folding stability dG turned out to be 0.411 kcal/mol

So, "ELREAFRLYDKEGNGYISTDVMREILAELDETLSSEDLDAMIDEWDADGSGTVDFEEFMGVMT" ? Its folding stability dG was 1.32 kcal/mol

Where do these numbers come from? They come from the MegaScale stability set (Tsuboyama et al. 2023).
